Test: Cytotoxicity against human WI-38 cells assessed as cell growth inhibition incubated for 48 hrs by SRB assay
Type: toxicity, cell-based
measure_name: GI50 at 48 h

Indicate its recorded GI50 at 48 h; the compound in question is COc1cc2cc(Oc3ccc(NC(=O)Nc4cc(C(F)(F)F)cc(C(F)(F)F)c4)cc3)c(C)nc2cc1OCCN1CCOCC1
> 20 µM

Indicate its recorded GI50 at 48 h; the compound in question is CNC(=O)c1cc(Oc2ccc(NC(=O)Nc3ccc(Cl)c(C(F)(F)F)c3)cc2)ccn1 [SORAFENIB]
> 20 µM

Indicate its recorded GI50 at 48 h; the compound in question is COc1cc2cc(Oc3ccc(NC(=O)Nc4ccc(F)c(C(F)(F)F)c4)cc3)c(C)nc2cc1OCCN1CCOCC1
> 20 µM

Indicate its recorded GI50 at 48 h; the compound in question is COc1cc2cc(Oc3ccc(NC(=O)Nc4ccc(Cl)c(C(F)(F)F)c4)cc3)c(C)nc2cc1OCCN1CCOCC1
> 20 µM
